# TARGET OF ASSAY: T1, ALKBH2 (Homo sapiens, UniProt Q6NS38 1-261)
# T1 sequence: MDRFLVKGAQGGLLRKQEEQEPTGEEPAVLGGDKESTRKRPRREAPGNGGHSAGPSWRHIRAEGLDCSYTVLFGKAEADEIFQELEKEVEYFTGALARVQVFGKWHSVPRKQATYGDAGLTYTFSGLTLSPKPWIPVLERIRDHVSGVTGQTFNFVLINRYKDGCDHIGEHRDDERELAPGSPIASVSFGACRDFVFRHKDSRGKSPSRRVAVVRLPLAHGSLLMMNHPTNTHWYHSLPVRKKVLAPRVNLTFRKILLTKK
# METHOD: Trp fluorescence titration; Fe(II)/2OG complex per Figure 2 legend (text says ALKBH2); 50 mM HEPES-KOH pH 7.5, 50 mM KCl, 10 mM MgCl2, 25 °C (titration, 1 uM enzyme per legend); 2 mM EDTA for apo; stopped-flow buffer not printed in the material
# CONDITION SET: protein: recombinant; (Ni-chelating column); blunt
METRIC NAME: pKd
A value of pKd is the negative decimal logarithm of a concentration given in moles per litre.

Ask: Which pKd value is on record for undamaged 15 nt duplex (A instead of m1A); also product A of m1A or εA repair (dsDNA) DNA 1: ACAGGATCCGGCATA DNA 2: TATGCCGGATCCTGT ?
Reply: 5.11

Data provenance is paper PMC9370705.
